# Tested system: T1, recombinant cynomolgus monkey PD-L1 with a C-terminal myc-myc-hexahistidine tag (cynomolgus monkey (Macaca fascicularis))
# T1 construct: also called MfPD-L1-MMH; MfPD-L1-MMH Monomer
# T1 sequence (chain, as listed by the source limits assumed): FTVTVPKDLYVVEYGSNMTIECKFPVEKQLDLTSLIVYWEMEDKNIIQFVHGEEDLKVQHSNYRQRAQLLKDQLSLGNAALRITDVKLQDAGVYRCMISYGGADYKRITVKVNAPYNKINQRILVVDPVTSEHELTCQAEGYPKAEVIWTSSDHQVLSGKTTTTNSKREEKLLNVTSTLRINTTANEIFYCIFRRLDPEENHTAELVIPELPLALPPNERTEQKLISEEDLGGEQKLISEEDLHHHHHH
# Method summary: SPR (Biacore), mAb captured, 37C
Each entry below carries its recorded t1/2.
Respond numerically; units are min and should not be typed.

Here is how some binders turned out for t1/2.
1) H1H9336P (antibody, human IgG1, V domains shown) VH: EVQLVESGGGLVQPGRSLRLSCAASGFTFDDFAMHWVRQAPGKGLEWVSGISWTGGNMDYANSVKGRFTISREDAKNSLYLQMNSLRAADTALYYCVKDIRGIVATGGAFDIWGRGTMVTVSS VL: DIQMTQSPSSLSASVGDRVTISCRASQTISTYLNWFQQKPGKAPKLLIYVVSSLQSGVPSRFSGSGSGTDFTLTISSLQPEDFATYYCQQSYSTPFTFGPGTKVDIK    9.2
2) H2aM8321N (antibody, mouse IgG2, V domains shown, also called H2M8321N) VH: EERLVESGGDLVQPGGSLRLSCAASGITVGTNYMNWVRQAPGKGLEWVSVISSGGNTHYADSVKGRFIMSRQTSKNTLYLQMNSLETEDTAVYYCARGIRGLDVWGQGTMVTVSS VL: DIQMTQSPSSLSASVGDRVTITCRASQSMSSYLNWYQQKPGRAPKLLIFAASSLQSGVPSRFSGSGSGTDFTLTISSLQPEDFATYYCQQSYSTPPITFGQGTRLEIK    1.4

Could you now consider this next binder?
Answer with the recorded t1/2 for the binder listed here: H2aM8317N (antibody, mouse IgG2, V domains shown, also called H2M8317N) VH: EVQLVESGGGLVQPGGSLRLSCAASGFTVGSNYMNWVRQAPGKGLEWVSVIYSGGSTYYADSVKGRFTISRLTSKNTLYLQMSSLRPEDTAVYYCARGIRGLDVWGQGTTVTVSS VL: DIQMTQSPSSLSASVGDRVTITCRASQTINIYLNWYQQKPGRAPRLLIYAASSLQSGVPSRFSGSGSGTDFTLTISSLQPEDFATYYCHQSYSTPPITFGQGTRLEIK
0.2
